# experimental target: Pden_5119 (Paracoccus denitrificans)
# Construct: C-terminal His6 tag kept, expressed in E. coli BL21(DE3)pLysS; subunit 20596 g/mol; dimer in solution; contains no cysteine
# experiment notes: stopped-flow reduction of enzyme-bound FMN at […] nm, hyperbolic fit of kobs
# Type: biochemical
# assay conditions: anaerobic reductive half-reaction of enzyme-FMN complex; rapid-equilibrium binding step; 0.1 M sodium phosphate pH 7.3; 10 °C; read-out: KNADH
metric name: Kd (µM)
Numbers only here, please. The scale is µM.

Kd reading for NC(=O)C1=CN([C@@H]2O[C@H](COP(=O)(O)OP(=O)(O)OC[C@H]3O[C@@H](n4cnc5c(N)ncnc54)[C@H](O)[C@@H]3O)[C@@H](O)[C@H]2O)C=CC1 [NADH] : 19

###

# experimental target: Pden_5119 (Paracoccus denitrificans, UniProt A1BCD5, K82A)
# Construct: C-terminal His6 tag kept, expressed in E. coli BL21(DE3)pLysS; subunit 20596 g/mol; dimer in solution; contains no cysteine
# Sequence (A1BCD5 entry or part of it K82A): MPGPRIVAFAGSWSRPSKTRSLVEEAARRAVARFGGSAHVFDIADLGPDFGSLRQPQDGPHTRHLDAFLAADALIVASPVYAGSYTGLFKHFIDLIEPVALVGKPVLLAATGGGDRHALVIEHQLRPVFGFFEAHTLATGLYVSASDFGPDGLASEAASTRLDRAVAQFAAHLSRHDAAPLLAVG
# experiment notes: intrinsic protein fluorescence quenching titration
# Type: binding
# assay conditions: read-out: Kd^FMN
# Source text: intrinsic protein fluorescence quenching titration on Pden_5119
metric name: Kd (µM)
The reply should be a number in µM, with the unit left off.

The value of Kd measured for the compound `Cc1cc2nc3c(=O)[nH]c(=O)nc-3n(C[C@H](O)[C@H](O)[C@H](O)COP(=O)(O)O)c2cc1C` turned out to be 6.8
